# assayed-system: T1, EsCas13d, nuclease-dead (Eubacterium siraeum, UniProt B0MS50, R295A;H300A;R849A;H854A)
# T1 sequence: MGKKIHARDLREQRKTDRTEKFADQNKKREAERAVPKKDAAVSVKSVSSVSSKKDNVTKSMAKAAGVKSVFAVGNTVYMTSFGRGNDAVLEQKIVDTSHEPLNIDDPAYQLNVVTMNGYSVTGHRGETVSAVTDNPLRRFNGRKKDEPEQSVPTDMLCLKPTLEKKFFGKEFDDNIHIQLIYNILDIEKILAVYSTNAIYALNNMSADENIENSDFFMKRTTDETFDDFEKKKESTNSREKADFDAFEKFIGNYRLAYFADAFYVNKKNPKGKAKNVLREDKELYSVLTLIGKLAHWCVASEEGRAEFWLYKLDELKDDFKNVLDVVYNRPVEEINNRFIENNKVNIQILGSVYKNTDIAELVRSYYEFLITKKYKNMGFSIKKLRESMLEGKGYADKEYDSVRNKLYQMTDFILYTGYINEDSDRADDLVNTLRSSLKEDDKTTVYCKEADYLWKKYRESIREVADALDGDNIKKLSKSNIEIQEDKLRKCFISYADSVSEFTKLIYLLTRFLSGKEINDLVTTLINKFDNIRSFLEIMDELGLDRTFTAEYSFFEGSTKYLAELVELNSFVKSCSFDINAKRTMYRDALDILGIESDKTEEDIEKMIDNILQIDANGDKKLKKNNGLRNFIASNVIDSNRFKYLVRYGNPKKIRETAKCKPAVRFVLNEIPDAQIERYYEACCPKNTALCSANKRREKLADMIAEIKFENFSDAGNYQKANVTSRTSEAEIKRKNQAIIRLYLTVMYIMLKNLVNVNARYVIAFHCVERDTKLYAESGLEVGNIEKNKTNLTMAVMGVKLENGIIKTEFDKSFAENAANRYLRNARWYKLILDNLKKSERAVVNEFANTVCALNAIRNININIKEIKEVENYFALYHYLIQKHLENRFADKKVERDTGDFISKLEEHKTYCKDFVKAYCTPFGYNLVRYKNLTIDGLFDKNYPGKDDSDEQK
# assay: crRNA (strand 1, pre-loaded); Mg2+; 40 mM Tris-HCl pH 7.5, 150 mM NaCl, 6 mM MgCl2, 1 mM DTT, 0.1% Tween-20, 0.2 mg/ml BSA; 25 C; 10 min per concentration, then washed
# conditions-used: tags: His6-TwinStrep-SUMO cleaved; N-terminal SNAP kept (SNAP-Surface 488); label: 3' end held by stalled T7 RNA polymerase
endpoint-label: Kd

| binder | result |
| --- | --- |
| target 2 MT 5'PFS UUC 3'PFS CCC (mixed) RNA 1: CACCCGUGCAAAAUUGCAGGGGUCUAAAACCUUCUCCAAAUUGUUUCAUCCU RNA 2: GGGAAUGGAUCCACAUCUACGAAUUCUUCAGGAUGAAACAAUUUGGAGAAGCCCAGAUCGGAAGAGCACACGU | ~29 nM |
| target 1 MT 5'PFS GCA 3'PFS UCG (mixed) RNA 1: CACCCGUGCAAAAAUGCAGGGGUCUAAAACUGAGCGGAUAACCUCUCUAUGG RNA 2: GGGAAUGGAUCCACAUCUACGAAUUCGCACCAUAGAGAGGUUAUCCGCUCAUCGAGAUCGGAAGAGCACACGU | 13.7 nM |
| target 2 MT 5'PFS AGG 3'PFS AGC (mixed) RNA 1: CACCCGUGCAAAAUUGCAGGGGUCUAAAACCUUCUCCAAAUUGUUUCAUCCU RNA 2: GGGAAUGGAUCCACAUCUACGAAUUCAGGAGGAUGAAACAAUUUGGAGAAGAGCAGAUCGGAAGAGCACACGU | 4.8 nM |
| target 1 insC 3' of 13,insA 3' of 3 (mixed) RNA 1: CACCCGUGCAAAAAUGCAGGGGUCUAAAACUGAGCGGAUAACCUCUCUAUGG RNA 2: GGGAAUGGAUCCACAUCUACGAAUUCGUACCAUAGAGAGCGUUAUCCGCUACACCGAGAUCGGAAGAGCACACGU | 6.88 nM |
| target 1 A1C,U11G (mixed) RNA 1: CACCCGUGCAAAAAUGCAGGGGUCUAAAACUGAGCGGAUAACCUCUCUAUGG RNA 2: GGGAAUGGAUCCACAUCUACGAAUUCGUACCAUAGAGAGGGUAUCCGCUCCCCGAGAUCGGAAGAGCACACGU | 50 nM |
